System: Amaranthus retroflexus
Test: Post-emergence herbicidal activity, glasshouse pot test
Format: in vivo
Details: Application post-emergence, rate 1000 g/ha, evaluated after 13 days
assay_metric: AMARE herbicidal damage score
Answer as a number with no unit attached.

Qu. Using the record for COC1=C(C)C(O)N(c2ccc(N)cn2)C1=O (stereo not shown) , report its AMARE herbicidal damage score.
Ans. 1

Qu. Using the record for CCc1cc(N2C(=O)C(Cl)=C(C)C2O)nnc1Cl (stereo not shown) , report its AMARE herbicidal damage score.
Ans. 3

Qu. Using the record for COC1=C(OC)C(O)N(c2ccc(C(F)(F)F)nn2)C1=O (stereo not shown) , report its AMARE herbicidal damage score.
Ans. 1

Qu. Using the record for CC1=C(Cl)C(=O)N(c2nccc(C(F)(F)F)n2)C1O (stereo not shown) , report its AMARE herbicidal damage score.
Ans. 5

Qu. Using the record for CC1=C(Cl)C(=O)N(c2cc(C(C)(C)C)c(Cl)nn2)C1O (stereo not shown) , report its AMARE herbicidal damage score.
Ans. 5

Qu. Using the record for COC1=C(OC)C(O)N(c2cc(F)ccn2)C1=O (stereo not shown) , report its AMARE herbicidal damage score.
Ans. 4

Qu. Using the record for CCc1cc(N2C(=O)C(Cl)=C(C)C2O)ncc1Br (stereo not shown) , report its AMARE herbicidal damage score.
Ans. 5

Qu. Using the record for CC(C)=C(C)c1cnc(N2C(=O)C(Cl)=C(C)C2O)cc1C(F)(F)F (stereo not shown) , report its AMARE herbicidal damage score.
Ans. 5

Qu. Using the record for CCCC1=C(Cl)C(=O)N(c2cc(C(F)(F)F)ccn2)C1O (stereo not shown) , report its AMARE herbicidal damage score.
Ans. 5

Qu. Using the record for COC1=C(C)C(O)N(c2cc(C(C)F)ccn2)C1=O (stereo not shown) , report its AMARE herbicidal damage score.
Ans. 5

Qu. Using the record for COC1=C(Br)C(=O)N(c2cc(C(F)(F)F)ccn2)C1O (stereo not shown) , report its AMARE herbicidal damage score.
Ans. 5

Qu. Using the record for CCC1=C(Cl)C(=O)N(c2cc(C(C)(C)C#N)ncn2)C1O (stereo not shown) , report its AMARE herbicidal damage score.
Ans. 5

Qu. Using the record for CC1=C(Cl)C(=O)N(c2cc(C(C)C)ncn2)C1O (stereo not shown) , report its AMARE herbicidal damage score.
Ans. 5

Qu. Using the record for COC1=C(C)C(O)N(c2cc(Cl)c(C(=O)NC(C)(C)C)cn2)C1=O (stereo not shown) , report its AMARE herbicidal damage score.
Ans. 5

Qu. Using the record for COc1ccnc(N2C(=O)C(Cl)=C(C)C2O)c1 (stereo not shown) , report its AMARE herbicidal damage score.
Ans. 1

Qu. Using the record for CC1=C(Cl)C(=O)N(c2cc(C(C)C)c(Cl)nn2)C1O (stereo not shown) [BF15] , report its AMARE herbicidal damage score.
Ans. 5

Qu. Using the record for CC1=C(Cl)C(=O)N(c2cc(/C=C/C(C)(C)C)ccn2)C1O (stereo not shown) , report its AMARE herbicidal damage score.
Ans. 1

Qu. Using the record for COC1=C(C)C(O)N(c2cc(C(F)(F)F)ccn2)C1=O (stereo not shown) , report its AMARE herbicidal damage score.
Ans. 5

Qu. Using the record for CC1=C(Cl)C(=O)N(c2cc(C(C)(C)C)ccn2)C1O (stereo not shown) , report its AMARE herbicidal damage score.
Ans. 3

Qu. Using the record for C=C(OCC)c1nnc(N2C(=O)C(OC)=C(C)C2O)cc1C(C)(C)F (stereo not shown) , report its AMARE herbicidal damage score.
Ans. 5

Qu. Using the record for CC1=C(Cl)C(=O)N(c2ccc(C#N)nn2)C1O (stereo not shown) , report its AMARE herbicidal damage score.
Ans. 2

Qu. Using the record for CC1=C(Cl)C(=O)N(c2cc(C#N)ccn2)C1O (stereo not shown) , report its AMARE herbicidal damage score.
Ans. 1
